The reported measurements were obtained from patent US7244850B2.

SYSTEM: human CB2 receptor (Homo sapiens)
Construct: purchased BioSignal
Sequence (P34972 whole entry): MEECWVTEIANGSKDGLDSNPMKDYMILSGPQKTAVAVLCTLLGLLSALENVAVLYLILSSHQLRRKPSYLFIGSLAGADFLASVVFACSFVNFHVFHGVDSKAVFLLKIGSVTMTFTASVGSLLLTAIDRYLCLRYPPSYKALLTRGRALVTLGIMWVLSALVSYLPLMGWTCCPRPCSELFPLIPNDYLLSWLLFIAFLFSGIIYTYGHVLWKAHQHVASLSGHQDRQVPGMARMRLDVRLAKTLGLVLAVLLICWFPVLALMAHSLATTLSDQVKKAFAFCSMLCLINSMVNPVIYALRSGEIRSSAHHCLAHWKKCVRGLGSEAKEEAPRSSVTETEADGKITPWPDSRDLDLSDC
ASSAY_EXPLANATION: hCB2 receptor binding (3H-CP55,940 displacement)
pKi: −log10 of the molar value.
ASSAY_METRIC: pKi

Value of pKi reported for the compound `CC(C)(C)c1nc2cc(C(=O)N(CC(F)(F)F)CC(F)(F)F)ccc2n1CC1CCCCC1` is ~7.48

----------
SYSTEM: human CB1 receptor (Homo sapiens, UniProt P21554)
Sequence (P21554 whole entry): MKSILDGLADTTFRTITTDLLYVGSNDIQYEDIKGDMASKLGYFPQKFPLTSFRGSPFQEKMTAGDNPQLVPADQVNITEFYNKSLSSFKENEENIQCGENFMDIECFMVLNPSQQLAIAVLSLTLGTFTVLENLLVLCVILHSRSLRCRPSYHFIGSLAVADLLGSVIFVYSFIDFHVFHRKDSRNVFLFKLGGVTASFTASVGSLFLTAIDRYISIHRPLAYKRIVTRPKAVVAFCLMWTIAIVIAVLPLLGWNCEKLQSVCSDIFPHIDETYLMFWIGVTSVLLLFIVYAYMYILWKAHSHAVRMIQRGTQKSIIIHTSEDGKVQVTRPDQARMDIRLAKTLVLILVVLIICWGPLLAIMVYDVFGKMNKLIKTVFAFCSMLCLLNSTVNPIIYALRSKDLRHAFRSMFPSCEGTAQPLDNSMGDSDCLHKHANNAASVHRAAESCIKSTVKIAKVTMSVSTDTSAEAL
ASSAY_METRIC: Ki

Value of Ki reported for the compound CC(C)(C)c1nc2cc(C(=O)N(CC(F)(F)F)CC(F)(F)F)ccc2n1CC1CCCCC1 [compound 1] is ~0.034 µM
